# tested-system: CYP2C19 (Homo sapiens)
# Construct: tissue Corning Gentest 452161; host or cells: human liver microsomes
# Sequence (P33261 whole entry): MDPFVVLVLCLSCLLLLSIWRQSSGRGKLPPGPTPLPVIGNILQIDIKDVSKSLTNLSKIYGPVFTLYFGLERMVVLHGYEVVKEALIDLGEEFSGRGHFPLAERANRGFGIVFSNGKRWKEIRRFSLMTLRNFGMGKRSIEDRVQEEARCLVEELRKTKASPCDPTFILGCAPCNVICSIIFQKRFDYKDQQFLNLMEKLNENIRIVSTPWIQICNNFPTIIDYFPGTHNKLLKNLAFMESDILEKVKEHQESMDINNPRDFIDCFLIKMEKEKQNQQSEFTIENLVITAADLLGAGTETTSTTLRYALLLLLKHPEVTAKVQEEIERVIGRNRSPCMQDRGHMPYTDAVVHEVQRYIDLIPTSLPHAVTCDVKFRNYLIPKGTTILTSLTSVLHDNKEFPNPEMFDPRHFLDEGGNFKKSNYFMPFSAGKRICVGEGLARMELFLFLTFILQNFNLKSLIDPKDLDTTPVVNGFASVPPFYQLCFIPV
# assay: Human liver microsome CYP450 inhibition, CYP2C19 (S)-mephenytoin 4'-hydroxylation
# Format: in vitro ADME
# condition-label: human liver microsomes, (S)-mephenytoin probe substrate
property-measured: IC50

Observed IC50, CYP2C19 (Homo sapiens), Cc1nc(N[C@H](C)c2cccc(C(F)F)c2F)c2cc([C@]3(O)CC[C@@H](O)CC3)c(=O)[nH]c2n1 [Example 18-p1] : > 30 µM

---

Reported values of IC50 for individual entries
# tested-system: interaction between the KRAS protein subtype G12V and the SOS1 protein (Homo sapiens)
# Construct: GST-TEV-SOS1(564-1049) (Viva Biotech, SOS1-191010); purchased SOS1: Viva Biotech; KRAS: Shanghai Panchao Biotechnology Co., Ltd. SOS1-191010
# Sequence (Q07889 564-1049, stated change not applied): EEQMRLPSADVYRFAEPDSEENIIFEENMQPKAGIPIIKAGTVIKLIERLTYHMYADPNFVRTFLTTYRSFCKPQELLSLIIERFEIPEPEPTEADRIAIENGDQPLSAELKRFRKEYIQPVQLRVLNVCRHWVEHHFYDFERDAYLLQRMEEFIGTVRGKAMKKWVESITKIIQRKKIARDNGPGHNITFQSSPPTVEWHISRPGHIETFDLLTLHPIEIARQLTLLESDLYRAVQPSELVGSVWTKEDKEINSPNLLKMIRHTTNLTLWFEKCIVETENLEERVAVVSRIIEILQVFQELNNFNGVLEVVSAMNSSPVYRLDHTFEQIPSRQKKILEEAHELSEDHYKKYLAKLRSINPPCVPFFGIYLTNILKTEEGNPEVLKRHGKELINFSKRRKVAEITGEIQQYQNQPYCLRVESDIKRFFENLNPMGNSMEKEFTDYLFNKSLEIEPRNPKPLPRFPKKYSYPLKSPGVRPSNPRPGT
# assay: Inhibition of the interaction between KRAS G12V and SOS1 protein (AlphaLISA/AlphaScreen)
# Format: binding
# condition-label: KRAS G12V + GST-TEV-SOS1(564-1049) + GDP
Quick note: give the figure in nM, leave out the unit.

Use these answered entries as a reference point.
compound: Cc1nc(N[C@H](C)c2cccc(C(F)F)c2F)c2cc([C@]3(O)CC[C@@H](O)CC3)c(=O)n(C)c2n1 [Example 28-p1]
uom: nM
readout-number: 97
//
compound: CC(=O)N1CCC(O)(c2cc3c(N[C@H](C)c4cccc(C(F)F)c4F)nc(C)nc3[nH]c2=O)CC1
uom: nM
readout-number: 50
//
compound: Cc1nc(N[C@H](C)c2cccc(C(F)F)c2F)c2cc(C3(O)CCOCC3)c(=O)[nH]c2n1
uom: nM
readout-number: 154
//
compound: Cc1nc(N[C@H](C)c2cccc3c2OCC3(F)F)c2cc([C@]3(O)CC[C@H](O)CC3)c(=O)[nH]c2n1 (racemic) [Example 25-p2]
uom: nM
readout-number: 65

Observed IC50, interaction between the KRAS protein subtype G12V and the SOS1 protein (Homo sapiens), Cc1nc(N[C@H](C)c2cccc(C(F)F)c2F)c2cc(N3CCOCC3)c(=O)[nH]c2n1 : 136

Observed IC50, interaction between the KRAS protein subtype G12V and the SOS1 protein (Homo sapiens), Cc1nc(N[C@H](C)c2cccc(C(F)F)c2F)c2cc(C3CCN(C(=O)CC#N)CC3)c(=O)[nH]c2n1 : 30

Observed IC50, interaction between the KRAS protein subtype G12V and the SOS1 protein (Homo sapiens), Cc1nc(N[C@H](C)c2cccc(C(F)(F)CO)c2F)c2cc(OC3CCOC3)c(=O)[nH]c2n1 (stereo partly shown) : 41

---

# Test system: H358 cells
# assay: Inhibition of proliferation of H358 cells (CellTiter-Glo 3D)
# Format: cell-based
# condition-label: Homo sapiens, NCI-H358, low adsorption plate, 120 h
Reported values of IC50 for individual entries
Quick note: give the figure in nM, leave out the unit.

compound: Cc1nc(N[C@H](C)c2cccc(C(F)F)c2F)c2cc([C@]3(O)CC[C@@H](O)CC3)c(=O)n(C)c2n1 [Example 28-p1]
uom: nM
IC50: 243
//
compound: CC(=O)N1CCC(O)(c2cc3c(N[C@H](C)c4cccc(C(F)F)c4F)nc(C)nc3[nH]c2=O)CC1
uom: nM
IC50: 55
//
compound: Cc1nc(N[C@H](C)c2cccc(C(F)F)c2F)c2cc(C3CCOCC3)c(=O)[nH]c2n1
uom: nM
IC50: 345
//
compound: Cc1nc(N[C@H](C)c2cccc(C(F)F)c2F)c2cc([C@]3(O)CC[C@H](O)CC3)c(=O)[nH]c2n1 [Example 18-p2]
uom: nM
IC50: 213
//
compound: CC(=O)N1CC=C(c2cc3c(N[C@H](C)c4cc(N)cc(C(F)(F)F)c4)nc(C)nc3[nH]c2=O)CC1
uom: nM
IC50: 97

Now let's try a different one.
The compound listed as Cc1nc(N[C@H](C)c2cccc(C(F)F)c2F)c2cc(C3=CCOCC3)c(=O)[nH]c2n1 shows IC50 equal to 461

The reported numbers originate from patent US20230219951A1.
